# System: purified polypeptide (carbonyl reductase)
# experimental_details: Substrate specificity of polypeptide (NADPH-dependent reduction of carbonyl compounds)
# Format: biochemical, Candida magnoliae strain NBRC0661
# condition_notes: 1 mM substrate, 0.25 mM NADPH, pH 6.5, 30° C.; relative to activity to 3-oxo-3-phenylpropanenitrile
Reported Relative activity values for a set of molecules
Field format: number, assumed %, no unit text.

Reference set (3 entries):
[[record]]
molecule = "CC(=O)CCO [4-hydroxy-2-butanone]"
value_reported = 301

[[record]]
molecule = "COc1ccc(C(C)=O)cc1OC"
value_reported = 2889

[[record]]
molecule = "O=C(CCl)c1cccc(Cl)c1"
value_reported = 10473


// Relative activity lookup, molecule = CCOC(=O)CC(C)=O [ethyl acetoacetate] , result: 903

Field Relative activity (entry CC(=O)c1ccncc1 ) reads 15710

Item: CC(=O)c1ccccn1 | Relative activity: 1926

Note to self: Relative activity recorded for CC(=O)C1CC1 was 181

Briefly, Relative activity measured for CC(=O)CCc1ccccc1 : 241
